Here the recorded pEC50 [95% CI] is given for each entry.
biological target: hCB1 (Homo sapiens, UniProt P21554); test: bioSensAll ebBRET signaling profiling, hCB1; type: cell-based; parameters: host or cells: HEK293SL cells, transient PEI transfection; settings: hCB1 GoB
Sequence (P21554 whole entry): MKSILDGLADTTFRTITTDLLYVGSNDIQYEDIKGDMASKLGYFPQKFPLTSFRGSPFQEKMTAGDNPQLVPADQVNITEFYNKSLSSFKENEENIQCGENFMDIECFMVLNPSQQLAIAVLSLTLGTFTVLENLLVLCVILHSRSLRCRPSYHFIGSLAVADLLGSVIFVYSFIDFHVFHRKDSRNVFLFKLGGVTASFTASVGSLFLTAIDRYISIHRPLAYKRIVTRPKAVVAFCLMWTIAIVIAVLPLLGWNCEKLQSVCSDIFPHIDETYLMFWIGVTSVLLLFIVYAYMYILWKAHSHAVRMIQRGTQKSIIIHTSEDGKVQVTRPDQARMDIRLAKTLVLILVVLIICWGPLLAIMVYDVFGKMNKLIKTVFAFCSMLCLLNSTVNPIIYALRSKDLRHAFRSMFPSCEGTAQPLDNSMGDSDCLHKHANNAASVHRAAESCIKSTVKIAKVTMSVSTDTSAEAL
PARAMETER: pEC50 [95% CI]

> print(dat)
                                    compound                          measured.on        data.value
 1  Cc1cc(C(=O)N2CC3(CCC3)[C@H]2[C@H]2CCCO2)nn1-c1cccc(C(F)(F)F)c1 [‘1651]  hCB1 (Homo sapiens, UniProt P21554)   4.7 [4.1 – 5.4]
 2  COC(=O)C(NC(=O)c1cc(C)n(-c2cccc(F)c2)n1)c1cccs1 (stereo not shown) [‘51486]  hCB1 (Homo sapiens, UniProt P21554)   6.2 [6.1 – 6.2]
 3  CC(=O)C(c1cccs1)N(C)C(=O)c1cc(C)n(-c2cccc(C(F)(F)F)c2)n1 (stereo not shown) [‘6829]  hCB1 (Homo sapiens, UniProt P21554)   6.0 [5.8 – 6.2]
 4  Cn1nc(-c2nnc(C(C)(C)Oc3ccc(Cl)cc3)o2)c2ccccc2c1=O [‘0450]  hCB1 (Homo sapiens, UniProt P21554)   5.6 [3.0 – 6.2]
 5  Cc1cc(C(=O)NC(c2ccccc2)c2ccco2)nn1-c1cccc(C(F)(F)F)c1 (stereo not shown) [‘1081]  hCB1 (Homo sapiens, UniProt P21554)   7.0 [6.8 – 7.3]
 6  COC(=O)[C@@H]1[C@@H]2CCC[C@@H]2CN1C(=O)c1cc(C)n(-c2cccc(Cl)c2)n1 (racemic) [‘10010]  hCB1 (Homo sapiens, UniProt P21554)   6.1 [6.0 – 6.2]
 7  Cc1cc(C(=O)NC(c2ccco2)c2ccco2)nn1-c1cccc(C(F)(F)F)c1 [‘1090]  hCB1 (Homo sapiens, UniProt P21554)   7.4 [7.3 – 7.5]
 8  Cc1c(C(=O)OCC2CSc3ccccc3O2)cnn1Cc1ccccc1 (stereo not shown) [‘7800]  hCB1 (Homo sapiens, UniProt P21554)   6.2 [5.9 – 6.4]
 9  Cc1cc(C(=O)NC(c2ccccc2)c2ccco2)nn1-c1cccc(C#N)c1 (stereo not shown) [‘12565]  hCB1 (Homo sapiens, UniProt P21554)   7.4 [7.1 – 7.6]
10  Cc1nn(Cc2ccc(Cl)cc2)c(C)c1C(=O)OCC1CSc2ccccc2O1 (stereo not shown) [‘5463]  hCB1 (Homo sapiens, UniProt P21554)         5.1 [6.0]
11  COC(=O)[C@](C)(NC(=O)c1cc(C)n(-c2cccc(C(F)(F)F)c2)n1)c1cccs1 [‘8690]  hCB1 (Homo sapiens, UniProt P21554)   7.8 [7.7 – 7.9]
12  COC(=O)[C@@H]1[C@@H]2CC[C@@H]2CN1C(=O)c1cc(C)n(-c2cccc(C(F)(F)F)c2)n1 [‘6448]  hCB1 (Homo sapiens, UniProt P21554)   6.5 [6.4 – 6.6]
13  COC(=O)C(C)(NC(=O)c1cc(C)n(-c2cccc(C(F)(F)F)c2)n1)c1cccs1 (stereo not shown) [‘4042]  hCB1 (Homo sapiens, UniProt P21554)  9.20 [9.1 – 9.3]
14  Cc1cc(C(=O)N2CC3(CCC3)[C@H]2[C@@H]2CCCO2)nn1-c1cccc(C(F)(F)F)c1 [‘5490]  hCB1 (Homo sapiens, UniProt P21554)   5.2 [4.8 – 5.6]
15  COC(=O)C(NC(=O)c1cc(C)n(-c2cccc(C(F)(F)F)c2)n1)c1cccs1 (stereo not shown) [‘60154]  hCB1 (Homo sapiens, UniProt P21554)   7.7 [7.7 – 7.8]
16  COC(=O)[C@@H]1[C@@H]2CCC[C@@H]2CN1C(=O)c1cc(C)n(-c2cccc(C(F)(F)F)c2)n1 [‘6439]  hCB1 (Homo sapiens, UniProt P21554)   7.2 [7.2 – 7.3]
